# system: mushroom tyrosinase (Agaricus bisporus, UniProt C7FF04)
# Construct: purchased Sigma
# Sequence (C7FF04 2-392): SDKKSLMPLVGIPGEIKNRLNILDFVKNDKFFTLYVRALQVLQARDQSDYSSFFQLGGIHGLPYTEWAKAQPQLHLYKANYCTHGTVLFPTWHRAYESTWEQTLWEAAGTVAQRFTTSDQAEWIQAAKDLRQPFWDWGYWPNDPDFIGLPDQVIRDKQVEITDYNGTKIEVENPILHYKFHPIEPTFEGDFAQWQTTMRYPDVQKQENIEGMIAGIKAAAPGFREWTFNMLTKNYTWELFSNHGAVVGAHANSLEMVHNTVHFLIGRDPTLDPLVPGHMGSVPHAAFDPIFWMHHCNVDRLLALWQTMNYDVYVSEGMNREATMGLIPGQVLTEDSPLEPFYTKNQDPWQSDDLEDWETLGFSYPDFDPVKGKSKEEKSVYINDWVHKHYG
# measurement_protocol: Kinetic analysis of tyrosinase inhibition (Lineweaver-Burk and Dixon plots, diphenolase activity)
# Format: biochemical, Agaricusbisporus

[
  {
    "line_notation": "Cc1ccc(C(C)C)cc1OC(=O)COC(=O)/C=C/c1ccc(O)cc1O",
    "Ki": "0.05 µM"
  }
]
